PROTOCOL: Stability in human plasma assessed as compound remaining at 3.3 umol/L after 60 mins by RF-MS analysis relative to control
Format: ADME, cell-free
DETAILS: read-out: Stability
This listing pairs compounds with measured remaining at 1 h, 3.3 µM.

INPUT_SMILES	remaining at 1 h, 3.3 µM [%]
Cc1ncnc2c1c1c(ccn1C)n2[C@@H]1O[C@H](CO)[C@@H](O)[C@H]1O	81
Cc1ncnc2c1c1occc1n2[C@@H]1O[C@H](CO)[C@@H](O)[C@H]1O	98
CSc1ncnc2c1c1c(ccn1C)n2[C@@H]1O[C@H](CO)[C@@H](O)[C@H]1O	98
CSc1ncnc2c1c1occc1n2[C@@H]1O[C@H](CO)[C@@H](O)[C@H]1O	98

Values compiled from ChEMBL document CHEMBL4330056.
